Biological target: Sox2 HMG (human, UniProt P48431 40-123)
Sequence (P48431 40-123): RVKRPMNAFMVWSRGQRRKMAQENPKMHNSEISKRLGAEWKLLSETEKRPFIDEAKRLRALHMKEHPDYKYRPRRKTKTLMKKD
Assay: fluorescence anisotropy; second (low-affinity) transition; FP at 4°C; ERα: 20 mM Tris pH 7.5 (at 25°C), 100 mM NaCl, 5% glycerol, 0.01% IGEPAL; Sox2: 10 mM Tris pH 7.5 (at 25°C), 135 mM KCl, 15 mM NaCl, 0.1 mg/mL BSA, 4% Ficoll, 0.05% NP-40, 1 mM DTT; SPR: ERα buffer, 25°C
Conditions: protein: recombinant; tags: N-terminal His8-MBP, 3C-cleaved; G-quadruplex
pKd: −log10 of the molar value.
assay-endpoint: pKd

binder="GGGAAGGGAAGGGAAGGGAA (structured_RNA) [G4 RNA (rG4), (G3A2)4]" readout_value=6.96
